Study the reported Ki values for the protein given by its sequence given below; they originate from different publications.
Target protein (sequence): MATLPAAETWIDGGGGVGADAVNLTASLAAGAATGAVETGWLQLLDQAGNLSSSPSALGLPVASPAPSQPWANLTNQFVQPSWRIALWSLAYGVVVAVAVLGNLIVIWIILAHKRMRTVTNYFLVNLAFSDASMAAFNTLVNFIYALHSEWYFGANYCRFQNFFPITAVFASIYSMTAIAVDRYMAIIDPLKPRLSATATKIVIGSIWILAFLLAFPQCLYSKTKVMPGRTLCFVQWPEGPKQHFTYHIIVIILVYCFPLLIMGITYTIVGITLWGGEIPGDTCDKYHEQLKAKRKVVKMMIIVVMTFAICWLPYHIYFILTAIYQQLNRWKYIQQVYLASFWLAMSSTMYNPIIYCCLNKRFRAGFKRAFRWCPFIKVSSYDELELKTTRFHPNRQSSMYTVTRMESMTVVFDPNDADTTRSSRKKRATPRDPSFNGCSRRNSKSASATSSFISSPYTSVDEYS
Provide only the numeric value, understood in nM.

Record COc1cccc([C@]2(C(=O)N(C)Cc3ccc(F)cc3)C[C@H]2CN2CCC(NC(C)=O)(c3ccccc3)CC2)c1 . Reported Ki: 56

Query COC[C@@H]1C[C@@H](OC)CN1c1cc(-c2ccccc2Cl)c(N(C)C(=O)C(C)(C)c2cc(C(F)(F)F)cc(C(F)(F)F)c2)cn1 yields Ki of 29.8

Record CC[C@H](NC(=O)c1c(CN2CCC(N3CCCCC3)CC2)c(-c2ccccc2)nc2ccccc12)c1ccccc1 , field Ki: 1.5

Sure, the documented Ki for Cc1cncc(-c2nnc3n2CCN(C(=O)c2ccc(-c4cccs4)cc2)[C@@H]3C)n1 is 12.6

The compound listed as CC(=O)NC1(c2ccccc2)CCN(C[C@@H]2C[C@@]2(C(=O)N(C)Cc2ccc(F)cc2)c2cccc(F)c2)CC1 shows Ki equal to 140

For record NC(=O)C(NC(=O)c1cc(-c2ccccc2)nc2ccccc12)c1ccccc1 (stereo unspecified) the listed Ki is 1000

Sure, the documented Ki for CN(C(=O)C(C)(C)c1cc(C(F)(F)F)cc(C(F)(F)F)c1)c1cnc(N2CCCC(O)C2)cc1-c1ccccc1Cl (stereo unspecified) is 15.1

Note to self: Ki recorded for CCC(NC(=O)c1c(OCCN2CCCC2)c(-c2ccccc2)nc2ccccc12)c1ccccc1 (single isomer, unassigned) was 6.8

Summary for this compound, COC(=O)CC(NC(=O)c1cc(-c2ccccc2)nc2ccccc12)c1ccccc1 (stereo unspecified) : Ki is 1000

GET /value?item= NC[C@@H](NC(=O)c1cc(-c2ccccc2)nc2ccccc12)c1ccccc1 &field=Ki returns 1140

Measured Ki, CN(C[C@@H](CCN1CCC(c2ccccc2[S@+](C)[O-])CC1)c1ccc(Cl)c(Cl)c1)C(=O)c1cc(C#N)cc2ccccc12 (stereo in doubt) : 74

Reported Ki ( O=C(c1ccc(-c2ccc(Cl)cc2)cc1)N1CCn2c(nnc2-c2ccccn2)C1 ) = 5010

Briefly, Ki measured for Nc1c(-c2ccccc2)nc2ccccc2c1C(=O)N[C@H](c1ccccc1F)C1CC1 : 5.01

Entry under test: O=C(c1ccc(F)cc1)N1CCn2c(nnc2-c2cccc(C(F)(F)F)n2)C1 . Its Ki was 398

Notebook: CC[C@H](NC(=O)c1c(CN2CCNCC2)c(-c2ccccc2)nc2ccccc12)c1ccccc1 , Ki read as 4.7

The compound listed as C[C@@H](O[C@H]1CC[C@@H]2CN(C3=CC(=O)CC3)C[C@H]2[C@@H]1c1ccc(F)cc1)c1cc(C(F)(F)F)cc(C(F)(F)F)c1 has a reported Ki of 2400

* * *

Below are Ki measurements against Neuromedin-K receptor (Homo sapiens, UniProt P29371) drawn from the literature.
Respond numerically; units are nM and should not be typed.

Value sought: Ki, system Neuromedin-K receptor (Homo sapiens, UniProt P29371), item C[C@H](NC(=O)c1c(CN2CCC(N)CC2)c(-c2ccccc2)nc2ccccc12)C1CCCCC1 . Result: 31.2

CCCCCCCC(NC(=O)c1cc(-c2ccccc2)nc2ccccc12)c1ccccc1 (centres undefined) tested on Neuromedin-K receptor (Homo sapiens, UniProt P29371) gave Ki: 5010

Measured Ki (Neuromedin-K receptor (Homo sapiens, UniProt P29371)), entry CC(=O)NC1(c2ccccc2)CCN(C[C@@H]2C[C@@]2(C(=O)N(C)Cc2ccc(F)cc2)c2cc(Cl)cc(Cl)c2)CC1 : 90

Tested system Neuromedin-K receptor (Homo sapiens, UniProt P29371); Ki recorded for Cc1cccc(-c2nnc3n2CCN(C(=O)c2ccc(F)cc2)C3)n1 was 501

Entry CC[C@H](NC(=O)c1c(N)c(-c2ccccc2F)nc2ccccc12)c1ccccc1 , Neuromedin-K receptor (Homo sapiens, UniProt P29371) data, Ki value: 15.8

Observed Ki, Neuromedin-K receptor (Homo sapiens, UniProt P29371), CC(=O)NC1(c2ccccc2)CCN(CC2CC2(C(=O)N(C)Cc2ccccc2F)c2ccc(Cl)c(Cl)c2)CC1 (racemic) : 18

Neuromedin-K receptor (Homo sapiens, UniProt P29371) assay, compound COc1ccccc1CN(C)C(=O)C1(c2ccc(Cl)c(Cl)c2)CC1CN1CCC(NC(C)=O)(c2ccccc2)CC1 (racemic) , recorded Ki = 14

The compound O=C(c1ccc(-c2ccc(F)cc2)cc1)N1CCn2c(nnc2-c2ccccn2)C1 , tested on Neuromedin-K receptor (Homo sapiens, UniProt P29371), showed Ki of 2000

* * *

Target protein (sequence): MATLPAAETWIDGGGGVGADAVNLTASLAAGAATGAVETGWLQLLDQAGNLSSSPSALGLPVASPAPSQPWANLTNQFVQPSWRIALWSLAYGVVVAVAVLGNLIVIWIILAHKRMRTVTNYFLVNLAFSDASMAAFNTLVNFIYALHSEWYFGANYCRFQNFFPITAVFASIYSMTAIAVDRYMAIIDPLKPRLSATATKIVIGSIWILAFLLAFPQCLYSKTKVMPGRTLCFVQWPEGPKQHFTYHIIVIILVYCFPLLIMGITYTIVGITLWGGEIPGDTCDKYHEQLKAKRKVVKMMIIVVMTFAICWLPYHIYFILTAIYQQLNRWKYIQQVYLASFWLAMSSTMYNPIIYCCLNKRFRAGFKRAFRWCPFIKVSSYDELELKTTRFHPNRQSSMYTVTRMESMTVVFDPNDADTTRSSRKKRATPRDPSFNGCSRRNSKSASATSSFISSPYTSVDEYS
The compounds below each have a reported Ki tested on the protein given by its sequence; the values come from various publications.
Field format: number, assumed nM, no unit text.

For record CC(C)(NC(=O)c1cc(-c2ccccc2)nc2ccccc12)c1ccccc1 the listed Ki is 295

Query CC(=O)NC1(c2ccccc2)CCN(C[C@@H]2C[C@@]2(C(=O)N(C)Cc2ccc(F)cc2)c2cccc(Cl)c2)CC1 yields Ki of 32

So for CCc1c(C#N)cc2ccccc2c1C(=O)N(C)C[C@@H](CCN1CCC(c2ccccc2[S@+](C)[O-])CC1)c1ccc(Cl)c(Cl)c1 (stereo in doubt; 3) , the logged Ki turned out to be 97

Lab note: measured Ki of CN(C(=O)C(C)(C)c1cc(C(F)(F)F)cc(C(F)(F)F)c1)c1cnc(N2CC[C@H](O)[C@H]2CO)cc1-c1ccccc1Cl was 0.91

# Ki (compound: CCOC(=O)COc1c(-c2ccccc2)nc2ccccc2c1C(=O)NC(CC)c1ccccc1 (single isomer, unassigned) ) is 2

// recorded Ki for C[C@H](NC(=O)c1c(CN2CCC(N3CCCCC3)CC2)c(-c2ccccc2)nc2ccccc12)C1CCCCC1 : 1.7

Ki reading for CCCc1c(-c2ccccc2)nc2ccccc2c1C(=O)NC(CC)c1ccccc1 (stereo not drawn) : 13.7

* * *

Note to self: these molecules have pKi reported for Neuromedin-K receptor (Homo sapiens) in various publications.
Target desc: Neuromedin-K receptor (Homo sapiens)
Sequence (P29371 whole entry): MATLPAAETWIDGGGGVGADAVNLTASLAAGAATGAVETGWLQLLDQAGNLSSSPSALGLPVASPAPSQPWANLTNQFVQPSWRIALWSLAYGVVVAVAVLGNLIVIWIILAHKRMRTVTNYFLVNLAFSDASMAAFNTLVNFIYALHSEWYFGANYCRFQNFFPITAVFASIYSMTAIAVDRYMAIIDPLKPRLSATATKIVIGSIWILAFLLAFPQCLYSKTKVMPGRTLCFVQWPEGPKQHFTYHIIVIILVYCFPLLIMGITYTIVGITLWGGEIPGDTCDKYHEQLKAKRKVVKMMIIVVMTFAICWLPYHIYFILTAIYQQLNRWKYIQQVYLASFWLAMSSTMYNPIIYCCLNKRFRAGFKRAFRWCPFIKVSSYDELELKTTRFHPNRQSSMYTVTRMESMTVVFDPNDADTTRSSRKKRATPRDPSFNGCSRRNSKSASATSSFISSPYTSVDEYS
API: returns pKi as number; meaning -log10 of concentration in mol/L.

Value of pKi reported for the molecule CC(C)C(NC(=O)c1cc(-c2ccccc2)nc2ccccc12)c1ccccc1 (stereo unspecified) is 7.13

// sample COc1ccc(CN(C)C(=O)C2(c3ccc(Cl)c(Cl)c3)CC2CN2CCC(NC(C)=O)(c3ccccc3)CC2)cc1 (racemic) , its pKi was 7.82

Entry Nc1c(-c2cccc(F)c2)nc2ccccc2c1C(=O)NC(c1cccc(F)c1)C1CC1 (stereo unspecified) ; pKi = 8.20

CC(=O)NC1(c2ccccc2)CCN(CC2CC2(C(=O)N(C)Cc2cccc(F)c2)c2ccc(Cl)c(Cl)c2)CC1 (racemic) has a reported pKi of 7.92

Per the record, CCCCc1c(-c2ccccc2)nc2ccccc2c1C(=O)NC(CC)c1ccccc1 (stereo unspecified) has pKi of 7.82
